Test system: Rhesus monkey
Assay: Plasma concentration in rhesus monkey
Format: ADME, organism-based, Macaca mulatta
Conditions: in vivo
Observed property: concentration (nM)
Field format: number, assumed nM, no unit text.

Kindly note the recorded concentration for C[C@H](O)c1ccccc1S(=O)(=O)c1ccc(/C=C/c2ccc(F)cc2)cc1 , which is 170

###

Target: 5-hydroxytryptamine receptor 2C (Homo sapiens)
Sequence (P28335 whole entry): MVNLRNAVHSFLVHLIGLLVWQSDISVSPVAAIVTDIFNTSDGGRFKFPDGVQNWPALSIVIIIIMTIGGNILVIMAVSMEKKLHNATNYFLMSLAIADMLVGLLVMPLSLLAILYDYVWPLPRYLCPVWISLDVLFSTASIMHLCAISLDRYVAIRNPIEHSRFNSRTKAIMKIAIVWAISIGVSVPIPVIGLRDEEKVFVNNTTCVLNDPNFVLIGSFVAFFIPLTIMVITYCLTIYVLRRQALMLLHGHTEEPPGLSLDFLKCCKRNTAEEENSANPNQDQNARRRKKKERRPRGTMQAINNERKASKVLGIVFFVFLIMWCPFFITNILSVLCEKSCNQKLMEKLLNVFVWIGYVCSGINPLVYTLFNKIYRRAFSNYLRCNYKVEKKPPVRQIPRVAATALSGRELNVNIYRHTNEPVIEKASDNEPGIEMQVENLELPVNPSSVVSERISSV
# reported pKi; entries follow
The meaning of pKi here: minus log10 of the concentration in molar units.

These solved cases illustrate the format of a correct answer.
C[C@H](O)c1ccccc1S(=O)(=O)c1ccc(/C=C/c2ccc(F)cc2)cc1
7.33
NC(=O)c1cccc(S(=O)(=O)c2ccc(/C=C/c3ccc(F)cc3F)cc2)c1
7.68
NC(=O)c1ccc(S(=O)(=O)c2ccc(/C=C/c3ccc(F)cc3F)cc2)cc1
7.39
O=S(=O)(c1cccc2cccnc12)N1CCC(CCc2ccc(F)cc2F)CC1
6.74

Query molecule follows.
Kindly note the recorded pKi for O=S(=O)(c1ccccc1)c1ccc(CCc2ccc(F)cc2F)cc1 , which is 6.28

###

pKi: −log10 of the molar value.
# Voltage-gated inwardly rectifying potassium channel KCNH2 (Homo sapiens, UniProt Q12809): pKi values follow
# Sequence (Q12809 whole entry): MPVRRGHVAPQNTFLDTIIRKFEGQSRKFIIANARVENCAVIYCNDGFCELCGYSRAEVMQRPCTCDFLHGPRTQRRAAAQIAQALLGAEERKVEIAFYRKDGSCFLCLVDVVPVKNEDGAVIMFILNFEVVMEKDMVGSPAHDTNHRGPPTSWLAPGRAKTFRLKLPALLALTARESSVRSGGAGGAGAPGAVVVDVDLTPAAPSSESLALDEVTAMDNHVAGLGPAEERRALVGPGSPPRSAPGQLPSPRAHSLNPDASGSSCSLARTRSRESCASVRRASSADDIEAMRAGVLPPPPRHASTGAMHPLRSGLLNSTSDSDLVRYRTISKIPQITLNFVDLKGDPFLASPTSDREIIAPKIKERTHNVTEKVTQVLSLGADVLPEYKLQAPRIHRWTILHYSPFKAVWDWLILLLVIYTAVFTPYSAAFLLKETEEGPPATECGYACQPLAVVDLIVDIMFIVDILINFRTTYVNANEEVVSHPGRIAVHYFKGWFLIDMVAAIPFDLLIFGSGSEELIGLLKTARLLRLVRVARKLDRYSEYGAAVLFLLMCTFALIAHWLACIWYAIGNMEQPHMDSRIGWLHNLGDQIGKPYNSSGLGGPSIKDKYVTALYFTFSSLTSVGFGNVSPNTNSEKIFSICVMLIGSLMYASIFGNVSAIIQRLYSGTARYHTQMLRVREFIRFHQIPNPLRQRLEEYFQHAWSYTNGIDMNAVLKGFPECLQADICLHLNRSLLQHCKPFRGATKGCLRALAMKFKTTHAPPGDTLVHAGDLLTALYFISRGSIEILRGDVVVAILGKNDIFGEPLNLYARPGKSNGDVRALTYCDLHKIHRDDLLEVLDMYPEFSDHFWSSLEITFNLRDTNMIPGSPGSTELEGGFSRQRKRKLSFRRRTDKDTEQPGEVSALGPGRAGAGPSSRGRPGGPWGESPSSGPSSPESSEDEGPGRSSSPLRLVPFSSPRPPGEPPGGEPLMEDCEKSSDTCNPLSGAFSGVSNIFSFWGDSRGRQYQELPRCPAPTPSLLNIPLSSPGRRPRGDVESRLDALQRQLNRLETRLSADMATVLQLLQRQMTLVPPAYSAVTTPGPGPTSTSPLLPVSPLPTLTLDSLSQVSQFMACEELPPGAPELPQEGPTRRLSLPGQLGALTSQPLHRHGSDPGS

O=S(=O)(c1cccc2cccnc12)N1CCC(CCc2ccc(F)cc2F)CC1
< 5.05

// compound NC(=O)c1ccccc1S(=O)(=O)c1ccc(/C=C/c2ccc(F)cc2F)cc1 , assay Voltage-gated inwardly rectifying potassium channel KCNH2 (Homo sapiens, UniProt Q12809), pKi value: < 5.05

// compound O=C(c1ccccc1F)N1CCC(CCc2ccc(F)cc2F)CC1 , assay Voltage-gated inwardly rectifying potassium channel KCNH2 (Homo sapiens, UniProt Q12809), pKi value: < 5.05
